# experiment-description: Rat pharmacokinetic test
# Type: in vivo, SD rats
# assay-conditions: male, Sprague-Dawley (SD), plasma, oral gavage 10 mg/kg
quantity: Cmax (ng/mL)

molecule: COc1ccc([C@@H]2CN(C(=O)[C@@H](O)CO)C[C@@]2(C)[C@@H](C)O)cc1OC1CN(c2ccc(C)cn2)C1 [Positive control compound, reference compound]
quantity: Cmax
measured-result: 68.2

----------
# experiment-description: Rat pharmacokinetic test
# Format: in vivo, SD rats
# assay-conditions: male, Sprague-Dawley (SD), plasma, oral gavage 10 mg/kg
Each record here notes measured AUC(0-t).

compound: COc1ccc([C@@H]2CN(C(=O)[C@@H](O)CO)C[C@@]2(C)[C@@H](C)O)cc1OC1CN(c2cc(C#N)c(C)cn2)C1
AUC(0-t): 23.5 ng·h/mL

compound: COc1ccc([C@@H]2CN(C(=O)[C@@H](O)CO)C[C@@]2(C)[C@@H](C)O)cc1OC1CN(c2ccc(C)c(C)n2)C1
AUC(0-t): 1530 ng·h/mL

compound: COc1ccc([C@@H]2CN(C(=O)[C@@H](O)CO)C[C@@]2(C)[C@@H](C)O)cc1OC1CN(c2ncc(C)cc2F)C1
AUC(0-t): 2480 ng·h/mL

compound: COc1ccc([C@@H]2CN(C(=O)[C@@H](O)CO)C[C@@]2(C)[C@@H](C)O)cc1OC1CN(c2cc(C)c(Cl)cn2)C1
AUC(0-t): 95.3 ng·h/mL

compound: COc1ccc([C@@H]2CN(C(=O)[C@@H](O)CO)C[C@@]2(C)[C@@H](C)O)cc1OC1CN(c2cc(Cl)c(C)cn2)C1
AUC(0-t): 103 ng·h/mL

compound: CCOc1ccc(N2CC(Oc3cc([C@@H]4CN(C(=O)[C@@H](O)CO)C[C@@]4(C)[C@@H](C)O)ccc3OC)C2)nc1
AUC(0-t): 410 ng·h/mL

compound: COc1ccc([C@@H]2CN(C(=O)[C@@H](O)CO)C[C@@]2(C)[C@@H](C)O)cc1OC1CN(c2ccc(C)cn2)C1 [Positive control compound, reference compound]
AUC(0-t): 190 ng·h/mL

compound: COc1ccc([C@@H]2CN(C(=O)[C@@H](O)CO)C[C@@]2(C)[C@@H](C)O)cc1OC1CN(c2ccc(Cl)c(C)n2)C1
AUC(0-t): 294 ng·h/mL

compound: COc1ccc([C@@H]2CN(C(=O)[C@@H](O)CO)C[C@@]2(C)[C@@H](C)O)cc1OC1CN(c2cc(C)c(C)cn2)C1
AUC(0-t): 443 ng·h/mL
